- protocol-description: Mouse IF pharmacokinetic study: plasma IF by HPLC, alone or after GFJ or naringin pre-administration
- Assay type: in vivo, ICR male mice
- conditions: male, ICR, mouse, plasma, po, 300 mg/kg, GFJ 20.8 µL/g ig 1 h before IF 300 mg/kg ig, mouse plasma
- Procedure: For the study, 7 groups with 12 animals each were intragastrically (ig) administered with 300 mg/kg of IF. Then, we obtained 1 mL of blood by cardiac puncture at 2.5, 5, 7.5, 10, 20, 30, and 60 min post-administration. Blood samples were immediately centrifuged at 3500 rpm. Aliquots of 250 µL were stored at −70 °C until the quantification of IF plasmatic concentrations was carried out. […]
result-type: half-life

INPUT: Entry O=P1(NCCCl)OCCCN1CCCl (stereo not shown) [IF, ifosfamide] has what half-life?
OUTPUT: 16.5 min

====

- protocol-description: Mouse IF pharmacokinetic study: plasma IF by HPLC, alone or after GFJ or naringin pre-administration
- Format: in vivo, ICR male mice
- conditions: male, ICR, mouse, plasma, po, 300 mg/kg, GFJ 20.8 µL/g ig 1 h before IF 300 mg/kg ig, mouse plasma; read-out: Tmax (converted)
result-type: Tmax
Please format your answer as a value with the unit trailing.

INPUT: Entry O=P1(NCCCl)OCCCN1CCCl (stereo not shown) [IF, ifosfamide] has what Tmax?
OUTPUT: 8.7 min

====

- protocol-description: Mouse IF pharmacokinetic study: plasma IF by HPLC, alone or after GFJ or naringin pre-administration
- Format: in vivo, ICR male mice
- conditions: male, ICR, mouse, plasma, po, 300 mg/kg, GFJ 20.8 µL/g ig 1 h before IF 300 mg/kg ig, mouse plasma; read-out: Cmax
result-type: Cmax (µg/mL)
Only the number, expressed in µg/mL, is required.

INPUT: Entry O=P1(NCCCl)OCCCN1CCCl (stereo not shown) [IF, ifosfamide] has what Cmax?
OUTPUT: 71.3
